# Read-out: xenobiotic metabolism (CYP1A1), CYP1A1 (gene 1543)
# assayInfo: CLD_CYP1A1_24hr: CellzDirect (CLD) Gene Expression Assay for xenobiotic metabolism (CYP1A1) at 24 hours (AID 2283673);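 also: CYP1A1 mRNA level by quantitative nuclease protection with chemiluminescence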
Inconclusive results are not listed. Active and inactive are the calls of the source. The calls were made as follows: active = hit-call score of the fitted dose curve at least 0.9, where 1 is the maximum; inconclusive = response in the unintended direction; inactive = score below 0.9.
Allowed answers: true (active), false (inactive)

Would you please look over these solved cases?
>  <compound>
O=C(O)C(F)(F)C(F)(F)C(F)(F)C(F)(F)C(F)(F)C(F)(F)C(F)(F)F

>  <assignedLabel>
false

$$$$
>  <compound>
CC(C)(C)C(O)C(Oc1ccc(Cl)cc1)n1cncn1 (centres undefined)

>  <assignedLabel>
true

$$$$
>  <compound>
CC1(C)C(C=C(Cl)Cl)C1C(=O)OC(C#N)c1ccc(F)c(Oc2ccccc2)c1 (centres undefined)

>  <assignedLabel>
false

$$$$
>  <compound>
O=C(Nc1ccccc1)Nc1cnns1

>  <assignedLabel>
true

$$$$
>  <compound>
COC(=O)c1ccccc1S(=O)(=O)NC(=O)N(C)c1nc(C)nc(OC)n1

>  <assignedLabel>
false

$$$$
>  <compound>
COC(=O)c1ccccc1CS(=O)(=O)NC(=O)Nc1nc(OC)cc(OC)n1

>  <assignedLabel>
true

$$$$
>  <compound>
CN1CSC(=S)N(C)C1

>  <assignedLabel>
true

$$$$
>  <compound>
COP(=S)(OC)Oc1ccc([N+](=O)[O-])cc1

>  <assignedLabel>
true

$$$$
>  <compound>
CCCN(CCOc1c(Cl)cc(Cl)cc1Cl)C(=O)n1ccnc1

>  <assignedLabel>
true

$$$$
>  <compound>
Oc1cc(Cl)ccc1Oc1ccc(Cl)cc1Cl

>  <assignedLabel>
false

$$$$

Please indicate how the test categorized Clc1ccccc1-c1nnc(-c2ccccc2Cl)nn1 .
true

Look up the recorded call for CNC(=O)Oc1ccccc1OC(C)C in this test.
false

Given CCN(CC)C(=O)SCc1ccc(Cl)cc1 , state the outcome it received in this test.
false

Recorded test outcome, item CCOc1nc(NC)nc(NC(=O)NS(=O)(=O)c2ccccc2C(=O)OC)n1
true

Outcome logged for CC(C)N(C(=O)COc1nnc(C(F)(F)F)s1)c1ccc(F)cc1 in this assay:
false

Which outcome was assigned to O=C(O)COc1ccc(Cl)cc1Cl in this test?
false

For CCCN(CCC)c1c([N+](=O)[O-])cc(C(F)(F)F)cc1[N+](=O)[O-] , which call appears in the assay record?
true

Field: outcome | Entry: CCC(C)Nc1c([N+](=O)[O-])cc(C(C)(C)C)cc1[N+](=O)[O-] (centres undefined)
false

Which outcome was assigned to O=S1OCC2C(CO1)C1(Cl)C(Cl)=C(Cl)C2(Cl)C1(Cl)Cl (centres undefined) in this test?
false

Name the outcome recorded for CCc1ccc(C(=O)NN(C(=O)c2cc(C)cc(C)c2)C(C)(C)C)cc1 in the assay.
true

# fetch the recorded call for COP(=S)(OC)Oc1ccc(SC)c(C)c1 here
true

Can you look up the reported call for Cc1cc(C)nc(NC(=O)NS(=O)(=O)c2ccccc2C(=O)OC2COC2)n1 for me?
true

// param item: CCC(C)(NC(=O)c1cc(Cl)c(C)c(Cl)c1)C(=O)CCl (centres undefined) ; yields the recorded call
false

For COc1nn(CSP(=S)(OC)OC)c(=O)s1 , which call appears in the assay record?
true

---

# Read-out: Cyclin Dependent Kinase Inhibitor 1A (CDKN1A), CDKN1A (gene 1026)
# assayInfo: LTEA_HepaRG_CDKN1A: Life Technologies and Expression Analysis (LTEA) Assay for Cyclin Dependent Kinase Inhibitor 1A (CDKN1A) using HepaRG (AID 2283450)
# assaySetup: mRNA level, 48 h; actives raise or lower the signal
Calls of active or inactive are those of the source. The calls were made as follows: active = hit-call score of the fitted dose curve at least 0.9, where 1 is the maximum; inactive = score below 0.9.
recordedMetric: outcome

>  <molecule>
O=C(NC(=O)c1c(F)cccc1F)Nc1ccc(OC(F)(F)C(F)OC(F)(F)F)c(Cl)c1 (stereo not drawn)

>  <recordedMetric>
outcome

>  <recordedMeasurement>
inactive

$$$$
>  <molecule>
CC1(C)C(C=C(Cl)Cl)C1C(=O)OC(C#N)c1ccc(F)c(Oc2ccccc2)c1 (stereo not drawn)

>  <recordedMetric>
outcome

>  <recordedMeasurement>
inactive

$$$$
>  <molecule>
Cc1[nH]c(=O)n(C(C)(C)C)c(=O)c1Cl

>  <recordedMetric>
outcome

>  <recordedMeasurement>
inactive

$$$$

---

# Read-out: UDP glucuronosyltransferase (UGT1A1), UGT1A1 (gene 54658)
# assayInfo: LTEA_HepaRG_UGT1A1: Life Technologies and Expression Analysis (LTEA) Assay for UDP glucuronosyltransferase (UGT1A1) using HepaRG (AID 2283538)
# assaySetup: mRNA level, 48 h; actives raise or lower the signal
# Procedure: LTEA_HepaRG is a cell based, multiplexed-readout assay that uses HepaRG, a human liver cell line, with measurements taken at 48 hours after chemical dosing on a 96-well plate.LTEA_HepaRG_UGT1A1 is one of 102 assay component(s) measured in the LTEA HepaRG cell culture assay. It is a marker of Steatosis/NR mediated metabolism.Data from the assay component LTEA_HepaRG_UGT1A1 was analyzed into 1 endpoint. […]
The source made the active and inactive calls. The calls were made as follows: active = hit-call score of the fitted dose curve at least 0.9, where 1 is the maximum; inactive = score below 0.9.
In this exercise, the only acceptable responses are active, inactive

>  <compound>
N#CN

>  <assignedLabel>
inactive

$$$$

// param item: CCC(C)Nc1c([N+](=O)[O-])cc(C(C)(C)C)cc1[N+](=O)[O-] (configuration not stated) ; yields the recorded call
active

Record request — test call for CN1CSC(=S)N(C)C1
inactive

Assay outcome for COP(=S)(OC)Oc1ccc(SC)c(C)c1 : what was it?
active

Kindly provide the recorded test outcome for the following compound: COP(=S)(OC)Oc1ccc([N+](=O)[O-])cc1
inactive

---

# Read-out: urokinase plasminogen activator (uPA), PLAU (gene 5328)
# assayInfo: BSK_BE3C_uPA: BioMAP Diversity Plus: BE3C Assay for urokinase plasminogen activator (uPA) Biomarker Activity (AID 2283038);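 also: uPA protein level quantified by ELISA in cell cultures; uPA read one day after compound addition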
# assaySetup: primary human bronchial epithelial cells; actives raise or lower the signal
Activity calls are given as the source filed them. How the source made its calls: active means hit-call score of the fitted dose curve at least 0.9, where 1 is the maximum; inactive means score below 0.9.
Tick one outcome: T (active), F (inactive)

>  <compound>
O=C(Nc1ccccc1)Nc1cnns1

>  <assignedLabel>
F

$$$$

Tell me the recorded outcome of this test for COc1nn(CSP(=S)(OC)OC)c(=O)s1 .
F

For CCCN(CCC)c1c([N+](=O)[O-])cc(C(F)(F)F)cc1[N+](=O)[O-] , what call appears in the results of this test?
F

Which outcome was assigned to O=C(O)CCCOc1ccc(Cl)cc1Cl in this test?
F

---

# Read-out: Cellular tumor antigen p53 (Homo sapiens)
# assayInfo: LTEA_HepaRG_TP53: Life Technologies and Expression Analysis (LTEA) Assay for Tumor Protein P53 (TP53) using HepaRG (AID 2283537)
# assaySetup: mRNA level, 48 h; actives raise or lower the signal
Active and inactive are the calls of the source. The calls were made as follows: active = hit-call score of the fitted dose curve at least 0.9, where 1 is the maximum; inactive = score below 0.9.
Select the correct class. Options are active, inactive and nothing else.

Some solved cases for reference:
>  <compound>
O=[N+]([O-])c1c(Cl)c(Cl)c(Cl)c(Cl)c1Cl

>  <assignedLabel>
inactive

$$$$
>  <compound>
CC1(c2ccc(Oc3ccccc3)cc2)OC(=O)N(Nc2ccccc2)C1=O (stereo not drawn)

>  <assignedLabel>
active

$$$$
>  <compound>
CCC(C)(NC(=O)c1cc(Cl)c(C)c(Cl)c1)C(=O)CCl (stereo not drawn)

>  <assignedLabel>
inactive

$$$$

What classification did CN1CSC(=S)N(C)C1 end up with in this test?
inactive

Tell me the recorded outcome of this test for CC(C)(C)C(O)/C(=C\c1ccc(Cl)cc1Cl)n1cncn1 (stereo not drawn) .
inactive

# fetch the recorded call for CCOCN(C(=O)CCl)c1c(C)cccc1CC here
inactive

---

# Read-out: Monokine induced gamma interferon (MIG), CXCL9 (gene 4283)
# assayInfo: BSK_CASM3C_MIG: BioMAP Diversity Plus: CASM3C Assay for Monokine induced gamma interferon (MIG) Biomarker Activity (AID 2283048);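 also: MIG protein level measured by ELISA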
# assaySetup: primary human coronary artery smooth muscle cells; actives raise or lower the signal
Activity calls are given as the source filed them. The calls were made as follows: active = hit-call score of the fitted dose curve at least 0.9, where 1 is the maximum; inactive = score below 0.9.
Give one outcome, nothing more. List: 1.0 (active), 0.0 (inactive)

>  <molecule>
O=S1OCC2C(CO1)C1(Cl)C(Cl)=C(Cl)C2(Cl)C1(Cl)Cl (stereo unspecified)

>  <assignedLabel>
1.0

$$$$
>  <molecule>
CCOC1Oc2ccc(OS(C)(=O)=O)cc2C1(C)C (stereo unspecified)

>  <assignedLabel>
0.0

$$$$
>  <molecule>
[2H]C1([2H])[n+]2ccccc2-c2cccc[n+]2C1([2H])[2H]

>  <assignedLabel>
0.0

$$$$
>  <molecule>
CCC(C)(NC(=O)c1cc(Cl)c(C)c(Cl)c1)C(=O)CCl (stereo unspecified)

>  <assignedLabel>
1.0

$$$$
>  <molecule>
CCS(=O)(=O)c1cccnc1S(=O)(=O)NC(=O)Nc1nc(OC)cc(OC)n1

>  <assignedLabel>
0.0

$$$$
>  <molecule>
COc1cc(OC)nc(NC(=O)NS(=O)(=O)c2cc(NC=O)ccc2C(=O)N(C)C)n1

>  <assignedLabel>
0.0

$$$$
>  <molecule>
CCc1ccc(C(=O)NN(C(=O)c2cc(C)cc(C)c2)C(C)(C)C)cc1

>  <assignedLabel>
0.0

$$$$
>  <molecule>
CNC(=O)Oc1cccc(N=CN(C)C)c1

>  <assignedLabel>
0.0

$$$$
>  <molecule>
N#CN

>  <assignedLabel>
0.0

$$$$
>  <molecule>
COC(=O)c1ccccc1S(=O)(=O)NC(=O)Nc1nc(C)nc(OC)n1

>  <assignedLabel>
0.0

$$$$

Moving on to another molecule below.
Which outcome did this test record for the molecule Cc1cc(C)nc(NC(=O)NS(=O)(=O)c2ccccc2C(=O)OC2COC2)n1 ?
0.0
